Target: angiogenin (ANG) (Homo sapiens)
Assay: Inhibition of ANG ribonucleolytic activity, HPLC assay of oligonucleotide cleavage
Type: biochemical
Conditions: inhibition of ANG-catalyzed cleavage of an RNA oligonucleotide; 20 mM Hepes, 100 mM NaCl, 37° C.; read-out: KI
Some compounds, each annotated with its measured Ki.
measured attribute: Ki (µM)

Nc1ccc(/N=N/c2ccc(-c3ccc(O)cc3)cc2)c2ccc(S(=O)(=O)O)cc12; 81
CC(=O)Nc1ccc(N=Nc2c(S(=O)(=O)O)cc3cc(S(=O)(=O)O)cc(NC(C)=O)c3c2O)cc1; 71

###

Target: angiogenin (ANG) (Homo sapiens, UniProt P03950)
Sequence (P03950 25-147): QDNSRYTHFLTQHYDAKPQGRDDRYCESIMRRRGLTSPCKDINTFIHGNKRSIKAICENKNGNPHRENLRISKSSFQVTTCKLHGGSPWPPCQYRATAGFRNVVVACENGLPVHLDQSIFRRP
Experiment: Inhibition of ANG ribonucleolytic activity, HPLC assay of oligonucleotide cleavage
Type: biochemical
Conditions: read-out: KI
measured attribute: Ki (µM)

Cc1ccc(/N=N/c2c(N)ccc3cc(S(=O)(=O)O)ccc23)c(C)c1 [NCI-45569]; 194
O=S(=O)(O)c1cc(S(=O)(=O)O)c2c(/N=N/c3ccc(S(=O)(=O)O)c4ccccc34)c(O)ccc2c1 [new coccine]; 69
CC(=O)Nc1ccc(/N=N/c2ccc(N)c3cc(S(=O)(=O)O)ccc23)cc1 [NCI-45571]; 300

###

Target: angiogenin (ANG) (Homo sapiens)
Assay: Inhibition of ANG ribonucleolytic activity, HPLC assay of oligonucleotide cleavage
Assay type: biochemical
pKi: −log10 of the molar value.
measured attribute: pKi

Cc1ccc(/N=N/c2c(O)c(S(=O)(=O)O)cc3cc(S(=O)(=O)O)ccc23)c(C)c1 [xylidene ponceau 2R]; 4.31

###

Target: angiogenin (ANG) (Homo sapiens)
Experiment: Inhibition of ANG ribonucleolytic activity, HPLC assay of oligonucleotide cleavage
Assay type: biochemical
Settings: read-out: KI
pKi: −log10 of the molar value.
Some compounds, each annotated with its measured pKi.
measured attribute: pKi

Nc1c(/N=N/c2cc(Cl)ccc2Cl)c(S(=O)(=O)O)cc2cc(S(=O)(=O)O)c(/N=N/c3ccc(Sc4ccc(/N=N/c5ccc(O)cc5)cc4)cc3)c(O)c12 [NCI-75661]; 4.12
Nc1ccc2cc(S(=O)(=O)O)cc(O)c2c1/N=N/c1ccc(-c2ccc(/N=N/c3ccc(O)c(C(=O)O)c3)cc2)cc1 [direct red 1]; 4.85
O=C(O)c1cc(/N=N/c2ccc(/N=N/c3c(Nc4ccccc4)ccc4cc(S(=O)(=O)O)cc(O)c34)cc2)ccc1O [NCI-45612]; 3.80
O=[N+]([O-])c1ccc(/N=N/c2c(S(=O)(=O)O)cc3cc(S(=O)(=O)O)cc(O)c3c2O)cc1 [NCI-45542]; 3.37
O=S(=O)(O)c1ccc(/N=N/c2ccc(/N=N/c3c(O)ccc4cc(S(=O)(=O)O)cc(S(=O)(=O)O)c34)cc2)cc1 [NCI-65546]; 3.89
Nc1ccc2cc(S(=O)(=O)O)cc(O)c2c1/N=N/c1ccc(-c2ccc(/N=N/c3c(N)ccc4cc(S(=O)(=O)O)cc(O)c34)cc2)cc1 [NCI-75778]; 3.77

###

Target: UniProt P03950
Assay: Inhibition of ANG ribonucleolytic activity, HPLC assay of oligonucleotide cleavage
Assay type: biochemical
Conditions: read-out: KI
Description: Reaction mixtures with and without test compounds were chromatographed on a Mono Q anion-exchange column with an NaCl gradient in 10 mM Tris, pH 8. […] This information was used to calculate kcat/Km values, which were then fitted to the equation (kcat/Km)i=(kcat/Km)0/[…], where (kcat/Km)i and (kcat/Km)0 are defined as the values in the presence and absence of inhibitor, respectively, and [I] is defined as the inhibitor concentration. […]
Some molecules, each annotated with its measured Ki.
measured attribute: Ki (µM)

COc1cc(/N=N/c2cc(S(=O)(=O)O)cc3cc(S(=O)(=O)O)cc(O)c23)c(C)cc1/N=N/c1c(S(=O)(=O)O)cc2cc(Nc3ccccc3)ccc2c1O; 84
O=[N+]([O-])c1ccc(/N=N/c2c(S(=O)(=O)O)cc3cc(S(=O)(=O)O)ccc3c2O)c([N+](=O)[O-])c1; 307
Nc1ccc(/N=N/c2ccc(-c3ccc(/N=N/c4c(S(=O)(=O)O)cc5cc(S(=O)(=O)O)c(/N=N/c6ccccc6)c(O)c5c4N)cc3)cc2)c2ccc(S(=O)(=O)O)cc12; 5
Nc1ccc(/N=N/c2ccc(/C=C/c3ccc(/N=N/c4ccc(N)c5ccc(S(=O)(=O)O)cc45)cc3S(=O)(=O)O)c(S(=O)(=O)O)c2)c2cc(S(=O)(=O)O)ccc12; 172
Cc1cc(-c2ccc(/N=N/c3c(N)c(S(=O)(=O)O)cc4cc(S(=O)(=O)O)ccc34)c(C)c2)ccc1/N=N/c1cc(S(=O)(=O)O)c2ccccc2c1N; 14
Nc1ccc2cc(S(=O)(=O)O)cc(O)c2c1N=Nc1ccc(-c2ccc(N=Nc3cc(S(=O)(=O)O)c4ccccc4c3N)cc2)cc1; 112

###

Molecular target: angiogenin (ANG) (Homo sapiens, UniProt P03950)
Assay: Inhibition of ANG ribonucleolytic activity, HPLC assay of oligonucleotide cleavage
Format: biochemical
Conditions: read-out: KI
measured attribute: Ki (µM)

Cc1cc(-c2ccc(/N=N/c3c(N)ccc4cc(S(=O)(=O)O)ccc34)c(C)c2)ccc1N; 20
Cc1cc(/N=N/c2ccc(NC(=O)c3ccccc3)c3ccc(S(=O)(=O)O)cc23)ccc1/N=N/c1ccc2c(O)cc(S(=O)(=O)O)cc2c1; 108
Nc1ccc2cc(S(=O)(=O)O)c(/N=N/c3ccc(-c4ccc(/N=N/c5c(S(=O)(=O)O)cc6cc(S(=O)(=O)O)c(/N=N/c7cccc([N+](=O)[O-])c7)c(N)c6c5O)cc4)cc3)c(O)c2c1; 244

###

Target: angiogenin (ANG) (Homo sapiens)
Experiment: Inhibition of ANG ribonucleolytic activity, HPLC assay of oligonucleotide cleavage
Assay type: biochemical
Settings: read-out: KI
measured attribute: Ki (µM)

O=C(Nc1ccc2cc(S(=O)(=O)O)ccc2c1)c1ccc([N+](=O)[O-])cc1 [NCI-37169]; 950
O=S(=O)(O)c1cc(S(=O)(=O)O)c2c(/N=N/c3ccccc3)c(O)ccc2c1 [Orange G]; 83
O=S(=O)(O)c1ccccc1/N=N/c1c(S(=O)(=O)O)cc2cc(S(=O)(=O)O)c(/N=N/c3ccccc3S(=O)(=O)O)c(O)c2c1O [NCI-174066]; 234
CC(=O)Nc1ccc(/N=N/c2ccc3cc(S(=O)(=O)O)cc(NC(C)=O)c3c2O)cc1 [NCI-73416]; 77
Nc1ccc(/N=N/c2ccc(-c3ccc(S(=O)(=O)O)cc3)cc2)c2ccc(S(=O)(=O)O)cc12 [NCI-724225]; 81
Cc1cc(NC(=O)c2ccc(/N=N/c3c(O)c(S(=O)(=O)O)cc4cc(S(=O)(=O)O)ccc34)cc2)ccc1/N=N/c1ccc2cc(S(=O)(=O)O)cc(S(=O)(=O)O)c2c1 [NCI-65845]; 3

###

Molecular target: angiogenin (ANG) (Homo sapiens, UniProt P03950)
Experiment: Inhibition of ANG ribonucleolytic activity, HPLC assay of oligonucleotide cleavage
Type: biochemical
Conditions: read-out: KI
measured attribute: Ki (µM)

O=[N+]([O-])c1ccc(/N=N/c2c(O)ccc3cc(S(=O)(=O)O)ccc23)cc1; 305
Cc1cc(-c2ccc(/N=N/c3c(O)ccc4cc(S(=O)(=O)O)cc(S(=O)(=O)O)c34)c(C)c2)ccc1/N=N/c1c(O)c(S(=O)(=O)O)cc2cc(S(=O)(=O)O)ccc12; 23
O=C(O)c1cc(O)c(O)c(OC(=O)c2cc(O)c(O)c(O)c2CNc2ccc3cc(S(=O)(=O)O)cc(S(=O)(=O)O)c3c2)c1; 245
Nc1c(/N=N/c2ccc(-c3ccc(/N=N/c4c(O)ccc5cc(S(=O)(=O)O)cc(S(=O)(=O)O)c45)cc3)cc2)c(S(=O)(=O)O)cc2cc(S(=O)(=O)O)c(/N=N/c3ccccc3)c(O)c12; 23
Cc1ccc(C(=O)Nc2ccc(S(=O)(=O)O)c3cc(S(=O)(=O)O)cc(S(=O)(=O)O)c23)cc1NC(=O)c1cccc(NC(=O)Nc2cccc(C(=O)Nc3cc(C(=O)Nc4ccc(S(=O)(=O)O)c5cc(S(=O)(=O)O)cc(S(=O)(=O)O)c45)ccc3C)c2)c1 [suramin, reference compound]; 10

###

Molecular target: MMLV RT RNase H (Moloney murine leukemia virus, UniProt P03355)
pIC50: −log10 of the molar value.
measured attribute: pIC50

O=C(Nc1ccc(Cc2ccc(NC(=O)c3cccc([N+](=O)[O-])c3)c(C(=O)O)c2)cc1C(=O)O)c1cccc([N+](=O)[O-])c1 [CB-467929]; ~4.70

###

Molecular target: angiogenin (ANG) (Homo sapiens)
Test: Inhibition of ANG ribonucleolytic activity, HPLC assay of oligonucleotide cleavage
Assay type: biochemical
Conditions: read-out: KI
pKi: −log10 of the molar value.
measured attribute: pKi

O=C(O)c1ccccc1/N=N/c1c(O)c(S(=O)(=O)O)cc2cc(S(=O)(=O)O)ccc12; 3.62
Cc1cc(S(=O)(=O)O)ccc1N=c1ccc2c(-c3ccccc3C(=O)O)c3ccc(Nc4ccccc4C)cc3oc-2c1; 3.97
Cc1nn(-c2cc(S(=O)(=O)O)ccc2Cl)c(O)c1/N=N/c1c(NC(=O)c2ccc(N)cc2)ccc2cc(S(=O)(=O)O)ccc12; 3.89
O=C(Nc1ccc2cc(S(=O)(=O)O)ccc2c1)c1ccc(/N=N/c2cc(S(=O)(=O)O)c3ccccc3c2O)cc1; 4.12

Where do the numbers come from? From patent US20070032418A1.
